Hey, just so you know, these numbers are from patent US20250034170A1.

Target: GCase (Homo sapiens, UniProt P04062)
Construct: endogenous in cells; host or cells: HeLa cells
Sequence (P04062 40-536): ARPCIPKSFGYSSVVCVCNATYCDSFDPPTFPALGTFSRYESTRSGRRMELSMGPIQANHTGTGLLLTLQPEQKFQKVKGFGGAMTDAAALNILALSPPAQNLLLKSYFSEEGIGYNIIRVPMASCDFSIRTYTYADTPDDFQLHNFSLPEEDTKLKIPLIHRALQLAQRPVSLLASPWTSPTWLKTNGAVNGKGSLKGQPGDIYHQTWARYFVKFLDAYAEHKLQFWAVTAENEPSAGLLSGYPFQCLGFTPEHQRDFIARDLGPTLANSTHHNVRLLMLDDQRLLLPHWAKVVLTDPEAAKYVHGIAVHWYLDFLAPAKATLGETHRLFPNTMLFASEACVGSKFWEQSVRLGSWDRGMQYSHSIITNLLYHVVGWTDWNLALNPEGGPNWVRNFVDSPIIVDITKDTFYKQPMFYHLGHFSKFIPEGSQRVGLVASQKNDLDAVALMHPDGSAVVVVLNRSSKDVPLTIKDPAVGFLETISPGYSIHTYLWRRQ
Experiment: activation of GCase in a live cell PFB assay in HELA cells
Type: cell-based
Settings: activation of GCase, EC50 ranges
observation type: EC50

Take a look at these entries with their results.
FC(F)Cn1ncc2cnc(N3CCC4(CCN(c5ccnc(C(F)(F)F)c5)C4)C3)nc21 (stereo not drawn) [Cmpd 488] = > 100 µM
FC(F)Cn1ncc2ncc(N3CCCC4(CN(c5cncc(C(F)(F)F)c5)C4)C3)nc21 [Compound 15] = 10 to 50 µM

Proceed to the following item.
Query: So what's the measured EC50 for this one? FC(F)Cn1ncc2ncc(N3CCC4(CCN(c5cnnc(C(F)(F)F)c5)C4)CC3)nc21 [Cmpd 731]
Response: 10 to 50 µM
